- Test system: 786-0
- ASSAY_METHOD_TEXT: NCI tumour cell line growth inhibition, 48 h
The source made the active and inactive calls. Rule as the data show it: active = GI50 up to about 1.1 µM and inactive = higher.
Entries annotated with measured GI50
PARAMETER_MEASURED: GI50

1) COc1ccc(-c2nc(N)c(C#N)c3c2CCSc2ccc(C)cc2-3)cc1OC :: 15 µM (inactive)
2) CC(=O)NCc1c(C(N)=O)ncn1Cc1ccccc1 :: > 100 µM (inactive)
3) O=C(Nc1c(Cl)cc([N+](=O)[O-])cc1Cl)/C(=N\Nc1cccc(Cl)c1)c1c(O)c2ccccc2oc1=O :: > 100 µM (inactive)
4) CC(=O)OC1COC(N2C(=O)C(=O)c3ccccc32)C(OC(C)=O)C1OC(C)=O (stereo unspecified) :: > 100 µM (inactive)
5) C#C[C@]1(O)CC[C@H]2[C@@H]3CCC4=C/C(=N/CCOC(=O)c5cccc6c(=O)c7ccccc7[nH]c56)CC[C@@H]4[C@H]3CC[C@@]21C :: 42.4 µM (inactive)
6) Cc1ccc(C(=O)/C=C/N2CCN(c3cccc(C(F)(F)F)c3)CC2)cc1 :: 18.2 µM (inactive)
7) CCCCC1(C(NC(=O)c2ccccc2Cl)c2ccncc2)C(=O)N(c2ccccc2)N(c2ccccc2)C1=O (stereo unspecified) :: 83.4 µM (inactive)
8) O=C(c1cc(Cl)ccc1Cl)N1CCN(C(=O)c2cc(Cl)ccc2Cl)CC1 :: 91.2 µM (inactive)
9) CC(C)(C)OC(=O)Nc1cc(-c2ccccc2)co1 :: > 100 µM (inactive)
10) CCCC(Sc1ccccc1)P(=O)(c1ccccc1)c1ccccc1 (stereo unspecified) :: 37.7 µM (inactive)
11) O=C1c2ccccc2C(=O)N1C/C=N/NS(=O)(=O)c1ccc2ccccc2c1 :: > 100 µM (inactive)
12) C1CSC[C@H]2COC[C@@H](CSCCS1)S2 :: > 100 µM (inactive)
13) O=C1NCN(c2ccccc2)C12CCN(CCc1ccc3[nH]c(=S)[nH]c3c1)CC2 :: 33.5 µM (inactive)
14) Cn1c2cc(O)cc(O)c2c(=O)c2c([N+](=O)[O-])cccc21 :: > 100 µM (inactive)
15) Cc1cc(C)[n+]2c(c1)C=CC2.[O-][Cl+3]([O-])([O-])[O-] :: 37.2 µM (inactive)
16) Cn1c(=O)n(CC(Br)CBr)c(=O)n(CC(Br)CBr)c1=O (stereo unspecified) :: 38.1 µM (inactive)
17) O=C(O)c1nn[nH]c1S :: > 100 µM (inactive)
18) COc1cc(OC)cc(-c2nc3cc(F)ccc3s2)c1 :: 9.08 µM (inactive)
19) CC(C)(C)OC(=O)N(O)CCCn1cnc2c(N)ncnc21 :: > 100 µM (inactive)
20) O=c1oc(-c2ccccc2)c(-c2ccccc2)n1-c1ccc(Br)cc1 :: 32.4 µM (inactive)
21) Nc1nc(Cl)cc(OCC2(CO)CC=CC2)n1 :: > 100 µM (inactive)

---

- System: SN12C
- ASSAY_METHOD_TEXT: NCI tumour cell line growth inhibition, 48 h
The source made the active and inactive calls. Rule as the data show it: active = GI50 up to about 1.1 µM and inactive = higher.
Classes used: active, inactive

1) CC1(C)CC2=C(SC3C=CC=CC3N2)C(=O)C1C(=O)C(N)=O (stereo unspecified) :: inactive
2) CCCCC1(C(NC(=O)c2ccccc2Cl)c2ccncc2)C(=O)N(c2ccccc2)N(c2ccccc2)C1=O (stereo unspecified) :: inactive
3) O=C(O)c1ccccc1[Se][Se]c1ccccc1C(=O)O :: inactive
4) N#Cc1c(Cl)cc(C#N)n2c1nc1ccccc12 :: inactive
5) COC(=O)N/N=C(/CCN1CCCC1)CC(c1ccccc1)c1c(O)c2ccccc2oc1=O (stereo unspecified) :: inactive
6) COC1=C(C)C(=O)C2=C(C1=O)[C@@H]1[C@@H]3Cc4c(OC(=O)CO)c(C)c(OC)c(O)c4[C@H](CNC(=O)C(C)=O)N3[C@@H](C#N)[C@H](C2)N1C :: active
7) Cc1cc(C)c(-n2c(-c3ccc(Br)cc3)cs/c2=N\N=C2C=C(C(C)(C)C)C(=O)C(C(C)(C)C)=C2)c(C)c1 :: inactive
8) Cc1nc2ccc(S(=O)(=O)Nc3ccc(Cl)cc3)cc2c(=O)n1NC(=O)CNc1ccc(Cl)cc1 :: inactive
9) CN(C)CCCNc1ccc2nnn3c4ccc(OC(=O)c5ccc([N+](=O)[O-])cc5)cc4c(=O)c1c23 :: inactive
10) CNC(=S)/N=c1/sc(NC)nc2sc3c(c12)CCCC3 :: inactive
11) CCCCCCCCCCCCC(O)C(=O)O (stereo unspecified) :: inactive
12) CCCC(Sc1ccccc1)P(=O)(c1ccccc1)c1ccccc1 (stereo unspecified) :: inactive
13) O=c1[nH]c(=O)n(C2CC(O)C(CO)O2)cc1C#Cc1cc(F)cc(F)c1 (stereo unspecified) :: inactive
14) COc1ccc2cc1Oc1ccc(cc1)C(Sc1ccccc1)CCOC(=O)CC2 (stereo unspecified) :: inactive
15) S=C1NCN2CCN(CC2)CNC(=S)C(=S)NCN2CCN(CC2)CNC1=S :: inactive
16) COC(=O)[C@@]12CC3CN(Cc4c1[nH]c1ccccc41)C2CC3=O :: inactive
17) CCOC(=O)[C@@]12NN=N[C@@H]1[C@H]1CO[C@H](c3ccccc3)N1C2=O :: inactive
18) O=C(/C=C\c1ccc(Cl)cc1Cl)c1cccs1 :: inactive
19) COc1ccc(/N=N/c2c(N)nn(C)c2N)cc1 :: inactive
20) CCC1CCC2CCCC(C)N12 (stereo unspecified) :: inactive
21) O=C(O)C(Br)Cc1ccc2c(c1)OCO2 (stereo unspecified) :: inactive
22) OCCc1ccsc1-c1sc(-c2cc(CCO)c(-c3sccc3CCO)s2)cc1CCO :: inactive
23) COC(=O)C1C(=O)C(C(=O)OC)C2CCC1N2C (stereo unspecified) :: inactive
24) CCCCCCCCc1cc2c(O)c(c1)Cc1cc(CCCCCCCC)cc(c1O)Cc1cc(CCCCCCCC)cc(c1O)Cc1cc(CCCCCCCC)cc(c1O)Cc1cc(CCCCCCCC)cc(c1O)Cc1cc(CCCCCCCC)cc(c1O)C2 :: inactive
25) CC(=O)N[C@@H](Cc1ccc(O)cn1)C(=O)NCc1cccc(Cl)c1 :: inactive
26) COc1ccc(C(=C2C=CC=C2)c2ccc(OC)cc2)cc1 :: inactive
